The reported numbers originate from paper PMC6993142.

IC50 at 72 h: recorded values
assay: MTS dye cytotoxicity assay, whole panel; assay type: cell-based; settings: human

If you can, please state the reported IC50 at 72 h value of "C[C@H]1C(=O)OC[C@H]1C[C@@H](O)[C@](C)(O)[C@@]1(O)CC[C@@]2(O)[C@@H]3CC=C4CC=CC(=O)[C@]4(C)[C@H]3CC[C@]12C" .
> 5 µM

So what's the measured IC50 at 72 h for this one? "CC1=C(C)C(=O)O[C@@H]([C@](C)(O)[C@]2(O)CC[C@@]3(O)[C@@H]4C[C@H](Cl)[C@]5(O)CC=CC(=O)[C@]5(C)[C@H]4CC[C@]23C)C1"
> 5 µM

Look up IC50 at 72 h for this compound: CO[C@]12CC=CC(=O)[C@]1(C)[C@H]1CC[C@]3(C)[C@](O)([C@@](C)(O)[C@H]4CC(C)=C(C)C(=O)O4)CC[C@@]3(O)[C@@H]1C[C@H]2O [Compound 16, withanolide S 5-methyl ether]
> 5 µM

Can you share its IC50 at 72 h? I mean this compound: CC1=C(C)C(=O)O[C@@H]([C@](C)(O)C2=CC[C@@]3(O)[C@@H]4C[C@H]5O[C@]56[C@@H](O)C=CC(=O)[C@]6(C)[C@H]4CC[C@]23C)C1 [Compound 14, phyperunolide A]
> 5 µM
